- experimentalTarget: Nampt (nicotinamide phosphoribosyltransferase) (UniProt P43490 P43490:1-491)
- Sequence (P43490 whole entry, one chain of several): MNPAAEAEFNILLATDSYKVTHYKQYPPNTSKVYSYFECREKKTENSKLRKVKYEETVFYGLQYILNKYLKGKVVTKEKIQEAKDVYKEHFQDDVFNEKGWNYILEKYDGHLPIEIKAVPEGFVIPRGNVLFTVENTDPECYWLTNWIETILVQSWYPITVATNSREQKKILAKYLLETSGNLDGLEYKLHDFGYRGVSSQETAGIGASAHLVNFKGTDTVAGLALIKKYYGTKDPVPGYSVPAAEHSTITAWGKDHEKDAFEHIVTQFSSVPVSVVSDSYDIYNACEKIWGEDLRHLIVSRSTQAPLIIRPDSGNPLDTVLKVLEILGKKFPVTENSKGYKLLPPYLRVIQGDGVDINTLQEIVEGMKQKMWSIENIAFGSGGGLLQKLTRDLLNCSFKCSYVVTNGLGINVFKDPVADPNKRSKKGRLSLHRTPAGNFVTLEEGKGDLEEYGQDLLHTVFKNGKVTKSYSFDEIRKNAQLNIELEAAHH
- methodDescription: SPR; aptamer immobilized; 100 mM NaCl, 2 mM MgCl2, 5 mM KCl, 1 mM CaCl2, 20 mM Tris, 0.02% Tween 20, pH 7.6
- measurementContext: tags: AdipoGen AG-40A-0031; chain copies: 2
measureName: Kd
Express the reported value numerically, then name its unit.

Problem: Return Kd for the following binder: G55 (ssDNA) DNA: CGTACGGAATTCGCTAGCGGACTGGAGTCTAGACCGGGTAGCTGTGGTGGATCCGAGCTCCACGTG
Solution: 71.7 nM
